- Protocol details: qHTS profiling of the MIPE4 collection as inhibitors of Plasmodium falciparum (HB3) proliferation (AID 743347);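 further: plate controls were DMSO vehicle wells for no effect and artemisinin wells for full effect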
- Condition info: P. falciparum HB3 in erythrocytes, SYBR Green DNA, 72 h; at 28.5 µM (top of the series) unless noted
- Procedure: Plasmodium falciparum is a virulent malarial parasite that kills 1-2 million people worldwide each year. […] Because mature erythrocytes lack DNA, only Plasmodium-derived DNA is detected. The SYBR Green viability assay was adapted from a method described previously (Plouffe et al., 2008). […] The following morning, fluorescence intensity at 485(14) nm excitation and 535(25) nm emission wavelengths was measured on an EnVision (Perkin Elmer) plate reader. […]
Listed compounds paired with reported growth, % of control

{"Compound": "CNC[C@H](O)c1ccc(O)c(O)c1", "Assay readout": "growth, % of control", "Reading": "78% [at 57.5 µM]"}

Q: Record request: growth, % of control value, item Nc1cccc2c1CN(C1CCC(=O)NC1=O)C2=O (stereo not drawn)
A: 108% [at 57.5 µM]

Q: Entry O=C(CS(=O)Cc1ccco1)NCC=CCOc1cc(CN2CCCCC2)ccn1 (stereo not drawn) please
A: 86.8%

Q: Try this compound next: CNC[C@@H](O)[C@@H](O)[C@H](O)[C@H](O)CO
A: 75.9%

###

- Protocol details: qHTS of pediatric cancer cell lines to identify multiple opportunities for drug repurposing: Primary screen for Rh18 cells (AID 1347102); further: on the % scale 0 is the no-effect control and ±100 the full control effect; nearly all actives have a fitted effect of over 65% in size
- Condition info: Rh18 rhabdomyosarcoma viability, CellTiter-Glo luminescence, 48 h; series mostly up to 46 µM
Inconclusive results are not listed. Activity calls are given as the source filed them. Calls follow the shape of the dose curve; as a rule, active = well fitted cell-killing curve with a large enough effect; inconclusive = small, poorly fitted or top-dose-only effect; inactive = flat fitted curve, though single readings scatter.

{"Line notation": "C[C@]12CCC(=O)C=C1CC[C@@H]1[C@H]2[C@@H](O)C[C@@]2(C)[C@H]1CC[C@]2(O)C(=O)CO", "outcome": "inactive"}
{"Line notation": "CC(=O)NC[C@H]1CN(c2ccc(N3CCOCC3)c(F)c2)C(=O)O1", "outcome": "inactive"}
{"Line notation": "Nc1nc(OCc2ccccc2)c2[nH]cnc2n1", "outcome": "inactive"}

###

- Protocol details: qHTS drug screen for cell cycle checkpoint inhibitors in PARPi-resistant BRCA-mutant ovarian cancer cell lines. (AID 1963452)
- Condition info: PEO1/OlaR viability, CellTiter-Glo luminescence, 96 h; stronger effect = lower value
Assay readout: Z-AUC
Answer with a bare number; do not write a unit.

For orientation, consider the following solved cases.
{"Line notation": "CC(=O)Nc1ccc(O)cc1", "Z-AUC": 0.911}
{"Line notation": "COC1=C(OC)C(=O)C(CCCCCCCCCCO)=C(C)C1=O", "Z-AUC": -0.864}
{"Line notation": "COc1cc(OC)c(C(=O)CCCN2CCCC2)c(OC)c1", "Z-AUC": 1.29}
{"Line notation": "NC(=NCc1ccccc1)NC(=O)c1nc(Cl)c(N)nc1N", "Z-AUC": -0.929}
{"Line notation": "COc1ccc2cc([C@H](C)C(=O)O)ccc2c1", "Z-AUC": -0.4}

Now let's try a different one.
Q: Given CCc1nc(N)nc(N)c1-c1ccc(Cl)cc1 , state its recorded Z-AUC.
A: -0.192

###

- Protocol details: Quantitative High-Throughput drug screen in 47 multiple myeloma cell lines against the NCATS MIPE library collection: KMS11_JCRBsus cell viability assay (AID 1919873); further: nearly all actives have a fitted effect of over 50% in size
- Condition info: KMS11 myeloma viability, CellTiter-Glo ATP luminescence, 48 h; series mostly up to 45.8 µM
- Description: PI: Beverly A. Mock Ph.D. Laboratory of Cancer Biology and Genetics, Center for Cancer Research, National Cancer Institute, National Institute of Health, Bethesda, Maryland […] 5; Detector; 425V; Luminescence; Viewlux PerkinElmer. […] 1. […] Briefly, the corresponding myeloma cell lines were screened in 1,536-well plates with 500 cells, 5-uL per well for inhibition of cell viability (assessed by measuring ATP levels with CellTiterGlo). […]
Results filed as inconclusive are left out. The source made the active and inactive calls. Calls follow the shape of the dose curve; as a rule, active = well fitted cell-killing curve with a large enough effect; inconclusive = small, poorly fitted or top-dose-only effect, or effect the other way; inactive = no such curve, though single readings can be large or run the other way.
Respond only with the outcome that fits, drawn from Yes (active), No (inactive)

See these solved cases before continuing.
{"Compound": "CCCS(=O)c1ccc2nc(NC(=O)OC)[nH]c2c1 (centres undefined)", "Group label": "Yes"}
{"Compound": "CC(=O)O[C@H]1C(=O)[C@@]2(C)C([C@H](OC(=O)c3ccccc3)[C@]3(O)C[C@H](OC(=O)[C@H](O)[C@@H](NC(=O)c4ccccc4)c4ccccc4)C(C)=C1C3(C)C)[C@]1(OC(C)=O)CO[C@@H]1C[C@@H]2O (some centres undefined)", "Group label": "No"}
{"Compound": "C[C@@H](c1ncncc1F)[C@](O)(Cn1cncn1)c1ccc(F)cc1F", "Group label": "No"}
{"Compound": "CC1Cc2ccccc2N1NC(=O)c1ccc(Cl)c(S(N)(=O)=O)c1 (centres undefined)", "Group label": "No"}
{"Compound": "CC1(C)CCC(C)(C)c2cc(NC(=O)c3ccc(C(=O)O)cc3)ccc21", "Group label": "Yes"}
{"Compound": "COc1ccccc1N1CCN(CCN(C(=O)C2CCCCC2)c2ccccn2)CC1", "Group label": "No"}
{"Compound": "CN(c1nccc(=O)[nH]1)C1CCN(c2nc3ccccc3n2Cc2ccc(F)cc2)CC1", "Group label": "No"}
{"Compound": "C=CCc1cc(OC)c(O)c(C(=O)NCCO)c1", "Group label": "No"}

Alright, here's another compound for you.
Q: How was O=C(NC(Cc1cc(=O)[nH]c2ccccc12)C(=O)O)c1ccc(Cl)cc1 (centres undefined) classified in this test?
A: No

###

- Protocol details: Quantitative High-Throughput drug screen in 47 multiple myeloma cell lines against the NCATS MIPE library collection: ARD_JJKsccE7 cell viability assay (AID 1918929;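 on viability: 100% = DMSO-only wells and 0% = media-only wells without cells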)
- Condition info: ARD myeloma cell line viability, CellTiter-Glo, 48 h; series mostly up to 45.8 µM
Inconclusive results are not listed. Activity calls are given as the source filed them. Calls follow the shape of the dose curve; as a rule, active = well fitted cell-killing curve with a large enough effect; inconclusive = small, poorly fitted or top-dose-only effect, or effect the other way; inactive = no such curve, though single readings can be large or run the other way.
Log the outcome using a class from T = active, F = inactive

Q: What was the test verdict on COC(=O)C1=C(C)NC(C)=C(C(=O)OCCCN2CCC(c3ccccc3)(c3ccccc3)CC2)C1c1cccc([N+](=O)[O-])c1 (stereo not drawn) ?
A: F

Q: Similarly, Nc1ccc(S(N)(=O)=O)cc1 ?
A: F

Q: Note, next up: O=c1ccc2ccc(O)c(O)c2o1
A: F

Q: # iterate: O=C(O)c1cccnc1Nc1cccc(C(F)(F)F)c1
A: F

Q: Repeat with O=C(NCC1CCCCN1)c1cc(OCC(F)(F)F)ccc1OCC(F)(F)F (stereo not drawn)
A: T

Q: Now consider CCOC(=O)C(C)Oc1cccc2c(=O)n(CC(=O)Nc3ccc4c(c3)OCCO4)ccc12 (stereo not drawn) and answer again.
A: F

Q: Field entry: CCC(C)(Oc1ccc(C2(c3ccc(OC(C)(CC)C(=O)O)cc3)CCCCC2)cc1)C(=O)O (stereo not drawn)
A: F

Q: Then CS(=O)(=O)OCCCCOS(C)(=O)=O ?
A: F

###

- Protocol details: qHTS of pediatric cancer cell lines to identify multiple opportunities for drug repurposing: Primary screen for RD cells (AID 1347104); further: nearly all actives have a fitted effect of over 55% in size
- Condition info: RD rhabdomyosarcoma viability, CellTiter-Glo luminescence, 48 h; series mostly up to 46 µM
Results filed as inconclusive are left out. Calls of active or inactive are those of the source. The call rests on the fitted dose curve; in most records, active means well fitted cell-killing curve with a large enough effect; inconclusive means small, poorly fitted or top-dose-only effect; inactive means flat fitted curve, though single readings scatter.
Hi! Could you answer with just one of these? active, inactive

Example results:
{"Compound": "Cc1cccc(-c2[nH]ncc2-c2ccc3ncccc3n2)n1", "Group label": "inactive"}
{"Compound": "C=C(c1ccc(C(=O)O)cc1)c1cc2c(cc1C)C(C)(C)CCC2(C)C", "Group label": "inactive"}
{"Compound": "COC(=O)N[C@H](C(=O)N[C@@H](Cc1ccccc1)[C@@H](O)CN(Cc1ccc(-c2ccccn2)cc1)NC(=O)[C@@H](NC(=O)OC)C(C)(C)C)C(C)(C)C", "Group label": "inactive"}
{"Compound": "CCOC(=O)C1=C[C@@H](OC(CC)CC)[C@H](NC(C)=O)[C@@H](N)C1", "Group label": "inactive"}
{"Compound": "CN1C(C(=O)Nc2ccccn2)=C(O)c2sccc2S1(=O)=O", "Group label": "inactive"}

Q: // outcome(item) with item = O=C(NCCO[N+](=O)[O-])c1cccnc1
A: inactive

Q: For COc1ccccc1N1CCN(CCN(C(=O)C2CCCCC2)c2ccccn2)CC1 then?
A: inactive

Q: For Oc1ccc(-c2nc(-c3ccc(F)cc3)c(-c3ccncc3)[nH]2)cc1 then?
A: active

###

- Protocol details: qHTS drug screen for cell cycle checkpoint inhibitors in PARPi-resistant BRCA-mutant ovarian cancer cell lines. (AID 1963452)
- Condition info: PEO1/OlaR viability, CellTiter-Glo luminescence, 96 h; measured here: PEO1 parental Z-AUC; stronger effect = lower value
Class field: derived from Z-AUC; ranges low end: < 0.3; middle: ≥ 0.3 and < 0.8; high end: ≥ 0.8

The following compounds have reported results that may help.
{"Compound": "COC(=O)C1=C(C)NC(C)=C(C(=O)OCCCN2CCC(c3ccccc3)(c3ccccc3)CC2)C1c1cccc([N+](=O)[O-])c1 (stereo not drawn)", "Group label": "middle"}
{"Compound": "S=c1nc[nH]c2nc[nH]c12", "Group label": "low end"}

Q: Class for COC1=C(OC)C(=O)C(CCCCCCCCCCO)=C(C)C1=O ?
A: low end

Q: Continue with Oc1ccc2ccccc2c1SSc1c(O)ccc2ccccc12
A: middle

Q: Now consider Cc1cc(=O)oc2cc(O)ccc12 .
A: high end

Q: Same lookup for CC(=O)N1CCN(c2ccc(OC[C@H]3CO[C@](Cn4ccnc4)(c4ccc(Cl)cc4Cl)O3)cc2)CC1 , please.
A: middle

Q: # repeat for CCOC(=O)C(C)Oc1cccc2c(=O)n(CC(=O)Nc3ccc4c(c3)OCCO4)ccc12 (stereo not drawn)
A: middle

Q: Now this one: CS(=O)(=O)OCCCCOS(C)(=O)=O
A: high end

Q: How about COc1cc(OC)c(C(=O)CCCN2CCCC2)c(OC)c1 ?
A: high end

Q: Same question for O=c1oc2cc(O)ccc2s1 please.
A: low end

Q: Entry Cc1cc(Cl)ccc1OCCCC(=O)NO please
A: middle

Q: Next: O=C(O)c1cccc(-c2noc(-c3ccccc3F)n2)c1
A: high end

Q: Here is the next compound: O=C(O)c1cc(=O)c2c(OCC(O)COc3cccc4oc(C(=O)O)cc(=O)c34)cccc2o1
A: high end

Q: Check O=C(O)CCNC(=O)c1ccc(N=Nc2ccc(O)c(C(=O)O)c2)cc1 too.
A: low end

Q: What do you have for Cc1ccc(NC(=O)c2ccc(CN3CCN(C)CC3)cc2)cc1Nc1nccc(-c2cccnc2)n1 ?
A: low end

Q: Now try Clc1ccc(C(Cn2ccnc2)OCc2c(Cl)cccc2Cl)c(Cl)c1 (stereo not drawn) .
A: low end

Q: Here is the next compound: O=c1c(O)c(-c2cc(O)c(O)c(O)c2)oc2cc(O)cc(O)c12
A: high end
